Target: T1, extracellular domain of rhesus monkey BCMA (rhesus monkey, UniProt F7FFA0 1-53)
T1 construct: extracellular domain; also called RhBCMA
T1 sequence (F7FFA0 entry or part of it): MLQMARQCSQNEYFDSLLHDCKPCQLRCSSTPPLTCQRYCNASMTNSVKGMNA
Experiment: Octet BLI; Fab 200 nM
Kindly supply the reported pKd values for the records listed here.
Keep it numeric: pKd is minus log10 of the concentration in mol/L.

Consider the binder AB200-(2Vk30)_R2-VH-v65 (Fab, V domains shown) VH: QVQLVQSGAEVKKPGSSVKVSCKASGGTFSNYWIHWVRQAPGQGLEWMGATYRIQSTTYYNQKFKSRVTITADKSTSTAYMELSSLRSEDTAVYYCARGAIYHGFDVIDNWGQGTLVTVSS VL: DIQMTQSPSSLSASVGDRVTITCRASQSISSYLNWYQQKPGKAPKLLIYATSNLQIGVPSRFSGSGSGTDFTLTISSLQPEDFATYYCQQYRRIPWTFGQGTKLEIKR and give its measured pKd.
7.33

Consider the binder AB200-(2Vk30)_R2-VH-v40 (Fab, V domains shown) VH: QVQLVQSGAEVKKPGSSVKVSCKASGGTFTNYWIHWVRQAPGQGLEWMGATYRIHSTTYYAQKFKSRVTITADKSTSTAYMELSSLRSEDTAVYYCARGAIYHGFDVIDNWGQGTLVTVSS VL: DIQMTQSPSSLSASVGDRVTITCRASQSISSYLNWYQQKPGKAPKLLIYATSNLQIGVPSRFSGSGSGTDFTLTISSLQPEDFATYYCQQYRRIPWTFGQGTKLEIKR and give its measured pKd.
7.49

Consider the binder AB200-(2Vk30)_R2-VH-v19 (Fab, V domains shown) VH: QVQLVQSGAEVKKPGSSVKVSCKASGGTFSNYWIHWVRQAPGQGLEWMGGTYRSHSTTYYNQKFKSRVTITADKSTSTAYMELSSLRSEDTAVYYCARGAIYHGFDVIDNWGQGTLVTVSS VL: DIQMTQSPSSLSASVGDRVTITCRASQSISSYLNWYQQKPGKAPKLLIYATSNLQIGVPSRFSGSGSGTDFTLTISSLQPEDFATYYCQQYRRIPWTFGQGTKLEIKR and give its measured pKd.
7.60

Consider the binder AB200-(2Vk30)_R2-VH-v71 (Fab, V domains shown) VH: QVQLVQSGAEVKKPGSSVKVSCKASGGTFSNYWIHWVRQAPGQGLEWMGATYRIHSDTNYNEKFKSRVTITADKSTSTAYMELSSLRSEDTAVYYCARGAIFHGYDVIDNWGQGTLVTVSS VL: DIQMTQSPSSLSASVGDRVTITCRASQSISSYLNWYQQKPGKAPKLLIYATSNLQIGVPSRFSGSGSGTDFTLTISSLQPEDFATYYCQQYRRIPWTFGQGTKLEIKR and give its measured pKd.
7.19

Consider the binder AB200-(2Vk30)_R2-VH-v13 (Fab, V domains shown) VH: QVQLVQSGAEVKKPGSSVKVSCKASGGSFSNYWIHWVRQAPGQGLEWMGGTYRSHSDTYYAQKFKSRVTITADKSTSTAYMELSSLRSEDTAVYYCARGAIYHGYDVIENWGQGTLVTVSS VL: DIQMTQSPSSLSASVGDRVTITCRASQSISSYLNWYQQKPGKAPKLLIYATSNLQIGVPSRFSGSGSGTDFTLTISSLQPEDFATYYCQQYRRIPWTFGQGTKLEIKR and give its measured pKd.
6.84

Consider the binder AB200-(2Vk30)_R2-VH-v67 (Fab, V domains shown) VH: QVQLVQSGAEVKKPGSSVKVSCKASGGTFSNYWIHWVRQAPGQGLEWMGATYRIHSTTYYNEKFKSRVTITADKSTSTAYMELSSLRSEDTAVYYCARGAVYHGYDVIDNWGQGTLVTVSS VL: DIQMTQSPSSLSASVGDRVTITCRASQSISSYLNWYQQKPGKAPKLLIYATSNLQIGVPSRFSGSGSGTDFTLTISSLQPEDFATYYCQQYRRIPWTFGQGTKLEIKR and give its measured pKd.
7.45

Consider the binder AB200-(2Vk30)_R2-VH-v10 (Fab, V domains shown) VH: QVQLVQSGAEVKKPGSSVKVSCKASGGTYSNYWIHWVRQAPGQGLEWMGATYRSHSDTNYNQKYKSRVTITADKSTSTAYMELSSLRSEDTAVYYCARGAIYHGYDVIENWGQGTLVTVSS VL: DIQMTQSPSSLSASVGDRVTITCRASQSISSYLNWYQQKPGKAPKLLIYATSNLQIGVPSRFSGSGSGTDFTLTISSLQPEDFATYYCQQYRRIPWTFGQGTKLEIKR and give its measured pKd.
6.48

Consider the binder AB200-(2Vk30)_R2-VH-v23 (Fab, V domains shown) VH: QVQLVQSGAEVKKPGSSVKVSCKASGGTFSNYWIHWVRQAPGQGLEWMGGTYRSHSDTYYNQKYKSRVTITADKSTSTAYMELSSLRSEDTAVYYCARGAIFHGYDVIDNWGQGTLVTVSS VL: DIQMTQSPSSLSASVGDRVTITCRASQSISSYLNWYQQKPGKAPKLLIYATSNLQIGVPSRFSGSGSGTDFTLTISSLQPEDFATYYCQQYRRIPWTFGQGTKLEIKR and give its measured pKd.
7.59

Measured values drawn from patent US20240327535A1 for this set.
